assay: NCI Yeast Anticancer Drug Screen. Data for the bub3 strain (AID 167); conditions: S. cerevisiae bub3 mutant strain, at 50.0 µM, active compounds read high
About 79,000 compounds went through this panel and 15% of them were active in at least one assay; those are over-represented in the sample as a whole. The source made the active and inactive calls. Rule as the data show it: active = growth inhibition above about 70%; inactive = the rest.
Listed below: growth inhibition values for each entry.

CC1=NN(c2ccccc2)C(=O)/C1=C\c1ccccc1: 33.5% (inactive)

Any idea what growth inhibition was measured for c1ccc(-c2[nH]nc3nc4c(nc23)CCCC4)cc1 ? -33% (inactive)

Form field: reported growth inhibition of CCOC(=O)CN1CC(C2=C(O)CN(CC(=O)OCC)C2=O)=CC1=O 9.55% (inactive)

Bench note: what growth inhibition did O=C(NCC1(O)CCCCC1)c1ccccc1 show? 3.8% (inactive)
